- Tested on: NCI-H23 lung
- METHOD NOTES: NCI-60 one-dose screen, 48 h
- TEST CONDITIONS: 100 µM
The panel holds about 83,000 compounds, 20% with a hit somewhere; the sample as a whole holds those more often. Active and inactive are the calls of the source. Rule for the calls: active = growth percent below 10; inactive = the rest.
Output constraint: value belongs to active, inactive

stdin: Short answer needed: outcome of this test for O=C(/C=C/c1cccc(Oc2ccc(Cl)cc2)c1)c1ccccc1 ?
stdout: active

stdin: How did this test come out for CC(=O)/C=C/c1ccc(OCc2ccc(C(C)(C)C)cc2)cc1 ?
stdout: inactive

stdin: Hey, what did the test say about CC(=O)/C=C/c1ccc(OCc2ccc(Cl)cc2)cc1 ?
stdout: inactive

stdin: Could you check what this test reported for CCN(Cc1ccccc1)c1ccc(/C=C2\COc3ccccc3C2=O)cc1 ?
stdout: inactive

stdin: Would you mind telling me which call this test gave COc1ccc(C(=O)/C=C/c2ccc(OCc3cccc(C(F)(F)F)c3)c(OC)c2)cc1OC ?
stdout: inactive

stdin: Dear colleague, could you share the recorded outcome for CC(=O)/C=C/c1ccc(N(C)Cc2ccc(C(C)(C)C)cc2)cc1 when you have a moment?
stdout: active

stdin: Which outcome was assigned to COc1ccc(C(=O)/C=C/c2ccc(OCc3ccc(Cl)cc3)cc2)cc1OC in this test?
stdout: inactive

Data provenance: PubChem BioAssay (NCI)
